Method Notes: HIF-2a reporter inhibitors, primary screen, luminescence, 786-0 RCC cells (AID 624352)
Measurement Parameters: 786-0 RCC cells HIF-2a reporter, luciferase luminescence, overnight; at 18.8 µM; stronger effect = higher value
Hit rate of the full screen: of about 360,000 compounds, about 2,600 (0.72%) were called active. What follows is part of a selection rich in actives, with near analogues and random picks from the rest.
Measurement Name: inhibition (%)
Respond numerically; units are % and should not be typed.

Field: example entries. Status: answers known.
>>> result("Cc1ccc(-c2nc3ccc(Br)cn3c2Cc2ccccc2C(F)(F)F)cc1")
-290
>>> result("C=CCOc1ccccc1CNn1c(C)n[nH]c1=S")
21.3
>>> result("COc1ccc(CC(N)c2csc(NC(=O)NC(c3ccccc3)c3ccccc3)n2)cc1 (configuration not stated)")
4.75
>>> result("Cc1ccc(-c2cc(C(=O)N/N=C/C=C/c3ccccc3)n[nH]2)o1")
-1.73
>>> result("CCc1c(N=O)c(-c2ccccc2)n(O)[n+]1[O-]")
-2.82

Request: Find the measured inhibition of COc1ccc(-c2nc3ccc(Br)cn3c2Cc2ccc(C)cc2)cc1OC and report it.
Response: -137

Request: Supply reported inhibition belonging to this compound: C#CCNc1nc(C(C)C)nc2c1nnn2Cc1ccccc1F
Response: 4.59

Request: Supply reported inhibition belonging to this compound: O=[N+]([O-])c1ccc(C=Nc2ccc(Cl)cc2Cl)s1
Response: -3.51

###

Method Notes: HIF-2a reporter inhibitors, primary screen, luminescence, 786-0 RCC cells (AID 624352)
Measurement Parameters: 786-0 RCC cells HIF-2a reporter, luciferase luminescence, overnight; at 18.8 µM; stronger effect = higher value
Among all 360,000 compounds or so, about 2,600 (0.72%) were called active. What follows is part of a selection rich in actives, with near analogues and random picks from the rest.
Rule: inhibition of 10% or more gives YES; anything lower gives NO.

>>> class_assignment("CCN(CC)S(=O)(=O)c1ccc(NC(=O)c2cccnc2Cl)c(NC(=O)c2cccnc2Cl)c1")
"YES"
>>> class_assignment("CC1CCc2c(c3ccccc3[nH]c2=O)O1 (stereo not drawn)")
"NO"
>>> class_assignment("c1ccc(-n2cccc2)c(N2CCCCC2)c1")
"YES"
>>> class_assignment("Cc1cc(Cl)c(S(=O)(=O)Nc2ccc3c(c2)OCCO3)cc1OCC(N)=O")
"YES"
>>> class_assignment("O=C(NNC(=S)NCCCN1CCOCC1)c1ccncc1")
"NO"
>>> class_assignment("Cc1cc(O)ccc1-c1cc(C(=O)NCc2cc(C(F)(F)F)cc(C(F)(F)F)c2)[nH]n1")
"YES"

Request: Record S=C(NC1CCCCC1)NN1CCOCC1 ; criterion: inhibition no lower than 10%. Met?
Response: YES

Request: Kindly determine if inhibition recorded for COc1ccc(CN2CCn3ncc(C(=O)Nc4ccc(Cl)cc4Cl)c3C2=O)cc1 is above or exactly 10%.
Response: YES

Request: Threshold query (inhibition >= 10%) on CC1CCc2sc3nc(N4CCN(CCO)CC4)n4ncnc4c3c2C1 (stereo not drawn)
Response: NO

Request: Given CCOC(=O)c1c(C)[nH]c2c1-c1ccccc1C(=O)C2=O , state whether its inhibition is at least 10%.
Response: YES

Request: Does O=C(c1ccc(Cl)c(S(=O)(=O)N2CCCCCC2)c1)N1CCN(c2ccc(O)cc2)CC1 have a reported inhibition of at least 10%?
Response: YES

Request: Check this molecule for inhibition at or above 10%: CCOc1ccc(OCC(=O)Nc2c3c(nn2C(C)(C)C)CS(=O)(=O)C3)cc1
Response: NO

Request: In plain terms: is recorded inhibition at least 10% for CC1(C)C2CCC13CS(=O)(=O)NC3C2 (stereo not drawn) ?
Response: YES

###

Method Notes: HIF-2a reporter inhibitors, primary screen, luminescence, 786-0 RCC cells (AID 624352)
Measurement Parameters: 786-0 RCC cells HIF-2a reporter, luciferase luminescence, overnight; at 18.8 µM; stronger effect = higher value
In all, about 360,000 compounds went through this assay and about 2,600 (0.72%) were called active. What follows is part of a selection rich in actives, with near analogues and random picks from the rest.
Quick rule: inhibition of at least 20% means true, below that means false.

>>> class_assignment("CCN(C(=O)CSc1nnnn1-c1ccccc1OC)C1CCS(=O)(=O)C1 (stereo not drawn)")
"false"
>>> class_assignment("COc1ccccc1-n1nnnc1S(=O)(=O)Cc1ccc(Cl)cc1")
"true"
>>> class_assignment("O=c1onc(-c2c(F)cccc2F)n1-c1ccccc1Cl")
"false"

Request: Kindly determine if inhibition recorded for O=C(CC1SC(=Nc2ccccc2)N(Cc2ccccn2)C1=O)Nc1cccc(Cl)c1 (stereo not drawn) is above or exactly 20%.
Response: false

Request: Does COc1ccc2c(c1)c(=Cc1ccc(N(C)C)cc1)c1cc(-c3ccccc3)[n+](C)n12 have a reported inhibition of at least 20%?
Response: true

Request: Please check the record CN(CCc1ccccc1)C(=O)c1cccc(NC(=O)Cc2cccc(NC(=O)C3CCCN(C(=O)CCc4ccccc4)C3)c2)c1 (stereo not drawn) and state if its inhibition is at or above 20%.
Response: false

Request: Has COC(=O)CSc1nc2c(c(C3CC=CCC3)c1C#N)CCC2 (stereo not drawn) a recorded inhibition greater than or equal to 20%?
Response: false

Request: Dear colleague, could you confirm whether Cc1cc(C)c(S(=O)(=O)N2CCOCC2)cc1C has inhibition at or above 20%?
Response: false

Request: Hi team, for CCOC(=O)c1c(C)[nH]c(C2=NNC(=NC(C)COC)SC2)c1C (stereo not drawn) , is the recorded inhibition at or above 20%?
Response: false

Request: Hello, I need to know if CCN1CCC(O)(/C=C/c2ccc(C)cc2)C(C(=O)/C=C/c2ccc(C)cc2)C1 (stereo not drawn) has measured inhibition not below 20%. Thanks!
Response: true

Request: API: above_or_equal(metric=inhibition, cutoff=20%) for item C/C(=C\c1ccccc1)C1NC(=O)c2c(sc3c2CCCC3)N1 (stereo not drawn)
Response: false

Request: hey, is inhibition for this one >= 20%? CC1(C(=O)O)CCN1C(=O)/C=C/c1ccccc1 (stereo not drawn)
Response: false

Request: Exam item: decide whether the reported inhibition for O=C(CSc1nc2cccc(F)c2c(=O)n1-c1ccccc1)Nc1ccc2c(c1)CCC2 is at least 20%.
Response: false

Request: API: above_or_equal(metric=inhibition, cutoff=20%) for item CN1OC[C@@H]2CN(S(=O)(=O)c3cccc4ccccc34)[C@H](c3ccc(N4CCCCC4)cc3)C[C@@H]21
Response: false

Request: Entry CC(NC(=O)C(=O)NN=C1CCC(C(C)(C)C)CC1)c1ccccc1 (stereo not drawn) : is its inhibition no less than 20%?
Response: false

Request: Entry Cn1c(=O)n(C)c2cc(CNc3ccc(N4CCOCC4)c(C(=O)O)c3)ccc21 : is its inhibition no less than 20%?
Response: false

Request: Say whether Oc1ccc(CNc2ccccc2O)cc1 shows inhibition of 20% or more.
Response: false

Request: Kindly determine if inhibition recorded for CC(NS(=O)(=O)c1ccccc1)c1n[nH]c(=S)n1-c1ccccc1 (stereo not drawn) is above or exactly 20%.
Response: false

Request: Record NC(c1csc(NC(=O)Nc2ccccc2Oc2ccccc2)n1)c1ccccc1Cl (stereo not drawn) ; criterion: inhibition no lower than 20%. Met?
Response: true

Request: Please check the record O=C(/C=C/c1ccc(Cl)c([N+](=O)[O-])c1)c1ccc(O)cc1 and state if its inhibition is at or above 20%.
Response: true

Request: Does the compound COc1ccc(/C=N/N=C/c2c[nH]c(=O)c(C#N)c2Nc2ccccc2)cc1 have recorded inhibition that is 20% or more?
Response: true

Request: Exam item: decide whether the reported inhibition for CN(c1ccc2nc3ccccc3c(=O)n2n1)C1CCCCC1 is at least 20%.
Response: true

Request: Quick check, inhibition >= 20%? COc1cc(/C=C(\C#N)C(=O)Nc2ccc3ccccc3c2)c([N+](=O)[O-])cc1OC
Response: false

Request: Test whether the compound COc1ccc(OC)c(-c2c(=O)n(OCc3ccccc3Br)c3ccccc3[n+]2[O-])c1 records inhibition of 20% or higher.
Response: true

Request: Determine whether measured inhibition meets or exceeds 20% for CCCCN(C(=O)CCNC(=O)NC12CC3CC(CC(C3)C1)C2)c1c(N)n(CCCC)c(=O)[nH]c1=O
Response: false

Request: Determine whether this compound has inhibition no lower than 20%: COc1ccc(S(=O)(=O)N2C[C@H]3CON(C)[C@H]3C[C@H]2c2cccc(Br)c2)cc1
Response: false

Request: Entry COC(=O)CCNc1ccc2c(c1)OCCO2 : is its inhibition no less than 20%?
Response: true

Request: Please indicate if the recorded inhibition for CCc1cc(=O)oc2c(C)c(OCC(=O)N3CC[C@@]4(O)CCCC[C@H]4C3)ccc12 meets or exceeds 20%.
Response: false
